Parameter selectivity ratio: see the listing below.
test: Selectivity index, ratio of ED50 for human HaCaT cells to MIC for Staphylococcus aureus 3R7089 strain Oxford/ATCC 9144; format: toxicity; settings: read-out: Selectivity Index
Square brackets hold non-standard residues; d marks the D form. Peptide text beside a SMILES is read from it. Gly(Nα-4-Cl-benzyl) = O=C(O)CNCc1ccc(Cl)cc1; Gly(N-2-aminoethyl) = NCCNCC(=O)O; Nphe = O=C(O)CNCc1ccccc1; Nlys = NCCCCNCC(=O)O

Worked examples, 3 compounds total:
(Q) Given C[C@@H](c1ccccc1)N(CC(N)=O)C(=O)CN(C(=O)CN(CCCCCCN)C(=O)CN(C(=O)CN(C(=O)CNCCCCCCN)[C@@H](C)c1ccccc1)[C@@H](C)c1ccccc1)[C@@H](C)c1ccccc1 , state its recorded selectivity ratio.
(A) 1

(Q) Given NCCCCNCC(=O)N(CC(=O)N(CC(=O)N(CCCCN)CC(=O)N(CC(=O)N(CC(=O)N(CCCCN)CC(=O)N(CC(=O)N(CC(N)=O)Cc1ccc(Cl)cc1)Cc1ccc(Cl)cc1)Cc1ccc(Cl)cc1)Cc1ccc(Cl)cc1)Cc1ccc(Cl)cc1)Cc1ccc(Cl)cc1 (H-[Nlys][Gly(Nα-4-Cl-benzyl)][Gly(Nα-4-Cl-benzyl)][Nlys][Gly(Nα-4-Cl-benzyl)][Gly(Nα-4-Cl-benzyl)][Nlys][Gly(Nα-4-Cl-benzyl)][Gly(Nα-4-Cl-benzyl)]-NH2) , state its recorded selectivity ratio.
(A) 7

(Q) Given CC(c1ccccc1)N(CC(=O)N(CCCCN)CC(=O)N(CC(=O)N(CC(=O)N(CCCCN)CC(=O)N(CC(=O)N(CC(N)=O)[C@@H](C)c1ccccc1)Cc1ccc(F)cc1)C(C)c1ccccc1)Cc1ccc(F)cc1)C(=O)CN(Cc1ccc(F)cc1)C(=O)CNCCCCN (single isomer, unassigned) , state its recorded selectivity ratio.
(A) 17

Field: next compound
(Q) Given NCCNCC(=O)N(CC(=O)N(CC(=O)N(CCN)CC(=O)N(CC(=O)N(CC(N)=O)Cc1ccccc1)Cc1ccccc1)Cc1ccccc1)Cc1ccccc1 (H-[Gly(N-2-aminoethyl)][Nphe][Nphe][Gly(N-2-aminoethyl)][Nphe][Nphe]-NH2) , state its recorded selectivity ratio.
(A) 1

----------
Parameter selectivity ratio: see the listing below.
test: Selectivity index, ratio of ED50 for human HepG2 cells to MIC for Staphylococcus epidermidis clinical isolate; format: toxicity; conditions: read-out: Selectivity Index
Square brackets hold non-standard residues; d marks the D form. Peptide text beside a SMILES is read from it. Nphe = O=C(O)CNCc1ccccc1; Nlys = NCCCCNCC(=O)O
Lab note: jot the number down without any unit.

Worked examples, 2 compounds total:
(Q) Given NCCCCNCC(=O)N(CC(=O)N(CC(=O)N(CCCCN)CC(=O)N(CC(=O)N(CC(=O)N(CCCCN)CC(=O)N(CC(=O)N(CC(=O)N(CCCCN)CC(=O)N(CC(=O)N(CC(N)=O)Cc1ccccc1)Cc1ccccc1)Cc1ccccc1)Cc1ccccc1)Cc1ccccc1)Cc1ccccc1)Cc1ccccc1)Cc1ccccc1 (H-[Nlys][Nphe][Nphe][Nlys][Nphe][Nphe][Nlys][Nphe][Nphe][Nlys][Nphe][Nphe]-NH2) , state its recorded selectivity ratio.
(A) 50

(Q) Given NCCCCNCC(=O)N(CC(=O)N(CC(=O)N(CCCCN)CC(=O)N(CC(=O)N(CC(=O)N(CCCCN)CC(=O)N(CC(=O)N(CC(=O)N(CCCCN)CC(=O)N(CC(=O)N(CC(N)=O)Cc1cccc(F)c1)Cc1cccc(F)c1)Cc1cccc(F)c1)Cc1cccc(F)c1)Cc1cccc(F)c1)Cc1cccc(F)c1)Cc1cccc(F)c1)Cc1cccc(F)c1 , state its recorded selectivity ratio.
(A) 6

Field: next compound
(Q) Given CC(c1ccccc1)N(CC(=O)N(CCCCN)CC(=O)N(CC(=O)N(CC(=O)N(CCCCN)CC(=O)N(CC(=O)N(CC(N)=O)[C@@H](C)c1ccccc1)Cc1ccc(F)cc1)C(C)c1ccccc1)Cc1ccc(F)cc1)C(=O)CN(Cc1ccc(F)cc1)C(=O)CNCCCCN (single isomer, unassigned) , state its recorded selectivity ratio.
(A) 18
